Listed next: entries and their corresponding pIC50.
- test system: Macrophage colony-stimulating factor 1 receptor (Homo sapiens)
- Sequence (P07333 whole entry): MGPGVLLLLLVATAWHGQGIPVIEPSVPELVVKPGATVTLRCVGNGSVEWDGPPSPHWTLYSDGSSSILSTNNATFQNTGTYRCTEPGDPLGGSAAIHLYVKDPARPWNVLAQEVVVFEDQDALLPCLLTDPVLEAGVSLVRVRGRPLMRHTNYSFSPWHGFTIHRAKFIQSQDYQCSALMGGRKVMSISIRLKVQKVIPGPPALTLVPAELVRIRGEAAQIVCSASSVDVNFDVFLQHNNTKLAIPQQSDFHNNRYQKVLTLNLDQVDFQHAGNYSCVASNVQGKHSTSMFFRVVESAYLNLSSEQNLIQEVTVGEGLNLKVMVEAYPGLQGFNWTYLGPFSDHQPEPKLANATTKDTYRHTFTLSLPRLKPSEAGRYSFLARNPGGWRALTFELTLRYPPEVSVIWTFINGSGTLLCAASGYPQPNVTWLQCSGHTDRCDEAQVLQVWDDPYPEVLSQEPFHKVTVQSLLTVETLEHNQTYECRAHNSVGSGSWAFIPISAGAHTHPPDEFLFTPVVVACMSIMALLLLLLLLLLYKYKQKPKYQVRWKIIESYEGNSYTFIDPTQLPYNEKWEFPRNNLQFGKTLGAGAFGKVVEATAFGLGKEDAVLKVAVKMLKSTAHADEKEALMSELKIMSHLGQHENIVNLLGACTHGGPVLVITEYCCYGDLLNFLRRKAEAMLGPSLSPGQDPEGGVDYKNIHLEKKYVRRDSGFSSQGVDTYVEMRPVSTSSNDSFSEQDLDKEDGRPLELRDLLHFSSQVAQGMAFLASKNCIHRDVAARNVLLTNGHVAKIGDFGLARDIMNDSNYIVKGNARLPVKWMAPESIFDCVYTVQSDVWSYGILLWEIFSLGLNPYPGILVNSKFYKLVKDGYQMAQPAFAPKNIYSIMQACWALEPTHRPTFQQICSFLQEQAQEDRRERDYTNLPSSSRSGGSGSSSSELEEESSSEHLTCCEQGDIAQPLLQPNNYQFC
- assay text: Inhibition of recombinant CSF1R (unknown origin) using poly (Glu, Tyr)4:1 as substrate measured after 1 hr by ELISA
pIC50: −log10 of the molar value.

{"compound structure": "COc1cc(NC(=O)c2ccc(C)c(C#Cc3cnc4cccnn34)c2)cc(OC)c1", "readout qualifier": "=", "pIC50": 7.60}
{"compound structure": "Cc1cc(C(=O)Nc2ccc(Cl)cc2)ccc1C#Cc1cc(-c2cnn(C)c2)cnc1N", "readout qualifier": "<", "pIC50": 6.00}
{"compound structure": "Cc1ccc(C(=O)Nc2cccc(C(F)(F)F)c2)cc1C#Cc1cc(-c2cnn(C)c2)cnc1N", "readout qualifier": "=", "pIC50": 8.62}
{"compound structure": "COc1cc(NC(=O)c2ccc(C(C)C)c(C#Cc3cc(-c4cnn(C)c4)cnc3N)c2)cc(OC)c1", "readout qualifier": "<", "pIC50": 6.00}
{"compound structure": "Cc1ccc(C(=O)Nc2ccc(CN3CCN(C)CC3)c(C(F)(F)F)c2)cc1C#Cc1cncc2ccccc12", "readout qualifier": "=", "pIC50": 7.34}
{"compound structure": "COc1cc(NC(=O)c2ccc(C)c(C#Cc3cncc4ccccc34)c2)cc(OC)c1", "readout qualifier": "=", "pIC50": 7.63}
{"compound structure": "COc1ccccc1NC(=O)c1ccc(C)c(C#Cc2cc(-c3cnn(C)c3)cnc2N)c1", "readout qualifier": "=", "pIC50": 7.69}
{"compound structure": "COc1cc(NC(=O)c2ccc(C)c(C#Cc3cc(Cl)cnc3N)c2)cc(OC)c1", "readout qualifier": "=", "pIC50": 7.78}
{"compound structure": "COc1cc(NC(=O)c2ccc(C(F)(F)F)c(C#Cc3cc(-c4cnn(C)c4)cnc3N)c2)cc(OC)c1", "readout qualifier": "<", "pIC50": 6.00}
{"compound structure": "COc1cc(NC(=O)c2cccc(C#Cc3cc(-c4cnn(C)c4)cnc3N)c2)cc(OC)c1", "readout qualifier": "=", "pIC50": 7.79}
{"compound structure": "Cc1ccc(C(=O)N(C)c2ccc(Cl)cc2)cc1C#Cc1cc(-c2cnn(C)c2)cnc1N", "readout qualifier": "<", "pIC50": 6.00}
{"compound structure": "COc1cc(NC(=O)c2ccc(C)c(C#Cc3cccnc3N)c2)cc(OC)c1", "readout qualifier": "=", "pIC50": 7.55}
{"compound structure": "COc1cc(NC(=O)c2ccc(C)c(C#Cc3cc(-c4cnn(C)c4)cnc3N)c2)cc(OC)c1", "readout qualifier": "=", "pIC50": 8.59}
{"compound structure": "COc1cc(NC(=O)c2ccc(C)c(C#Cc3cc(C(N)=O)cnc3N)c2)cc(OC)c1", "readout qualifier": "=", "pIC50": 8.46}
{"compound structure": "Cc1ccc(C(=O)Nc2ccccc2)cc1C#Cc1cc(-c2cnn(C)c2)cnc1N", "readout qualifier": "=", "pIC50": 8.19}
{"compound structure": "COc1cc(NC(=O)c2ccc(OC)c(C#Cc3cc(-c4cnn(C)c4)cnc3N)c2)cc(OC)c1", "readout qualifier": "=", "pIC50": 6.58}
{"compound structure": "Cc1ccc(C(=O)Nc2ccc(C(F)(F)F)cc2)cc1C#Cc1cc(-c2cnn(C)c2)cnc1N", "readout qualifier": "=", "pIC50": 8.52}
{"compound structure": "COc1cc(NC(=O)c2ccc(C)c(C#Cc3cccnc3)c2)cc(OC)c1", "readout qualifier": "=", "pIC50": 6.66}
{"compound structure": "COc1cc(NC(=O)c2ccc(Cl)c(C#Cc3cc(-c4cnn(C)c4)cnc3N)c2)cc(OC)c1", "readout qualifier": "=", "pIC50": 8.19}

###

- assay text: MRT (infinity) in Sprague-Dawley rat at 5 mg/kg, po administered via gavage by LC-MS/MS analysis
- Type: ADME, organism-based
- test parameters: in vivo

{"compound structure": "Cc1ccc(C(=O)Nc2ccc(Cl)cc2)cc1C#Cc1cc(-c2cnn(C)c2)cnc1N", "MRT inf": "5.42 h"}

###

- assay text: Cytotoxicity against mouse RAW264.7 cells assessed as reduction in cell viability measured after 24 hrs by CCK8 assay
- Type: cell-based
outcome measure: CC50 at 24 h (µM)

{"compound structure": "Cc1ccc(C(=O)Nc2ccc(Cl)cc2)cc1C#Cc1cc(-c2cnn(C)c2)cnc1N", "reported": 66}
{"compound structure": "FC(F)(F)c1ccc(CNc2ccc(Cc3c[nH]c4ncc(Cl)cc34)cn2)cn1", "reported": 20.5}

###

- test system: Fibroblast growth factor receptor 1 (Homo sapiens)
- Sequence (P11362 whole entry, the tested form may be a part): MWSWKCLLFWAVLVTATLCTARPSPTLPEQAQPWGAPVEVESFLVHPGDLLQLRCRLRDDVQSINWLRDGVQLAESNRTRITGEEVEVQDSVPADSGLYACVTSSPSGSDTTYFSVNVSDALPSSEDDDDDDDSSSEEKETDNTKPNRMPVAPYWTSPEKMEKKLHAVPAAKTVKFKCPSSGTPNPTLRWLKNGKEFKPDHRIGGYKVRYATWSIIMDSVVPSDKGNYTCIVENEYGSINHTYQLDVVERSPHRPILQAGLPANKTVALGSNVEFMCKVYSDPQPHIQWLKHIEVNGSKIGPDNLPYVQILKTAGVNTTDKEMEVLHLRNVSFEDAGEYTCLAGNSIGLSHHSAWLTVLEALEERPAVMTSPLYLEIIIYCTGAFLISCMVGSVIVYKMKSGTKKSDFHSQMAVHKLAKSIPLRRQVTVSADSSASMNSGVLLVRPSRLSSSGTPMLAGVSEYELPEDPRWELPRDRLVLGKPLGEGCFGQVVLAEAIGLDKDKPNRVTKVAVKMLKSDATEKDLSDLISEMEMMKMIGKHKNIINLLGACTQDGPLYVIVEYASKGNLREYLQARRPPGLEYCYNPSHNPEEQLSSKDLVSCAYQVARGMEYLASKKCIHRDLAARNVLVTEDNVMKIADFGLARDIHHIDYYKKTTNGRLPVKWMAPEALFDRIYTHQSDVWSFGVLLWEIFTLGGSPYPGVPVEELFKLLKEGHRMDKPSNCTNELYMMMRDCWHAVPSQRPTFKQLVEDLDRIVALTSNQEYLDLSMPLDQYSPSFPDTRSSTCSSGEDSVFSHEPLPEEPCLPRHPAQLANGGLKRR
- assay text: Inhibition of recombinant human N-terminal GST-tagged FGFR1 (456 to 765 residues) expressed in baculovirus infected Sf21 insect cells using poly (Glu, Tyr)4:1 as substrate measured after 1 hr by ELISA

{"compound structure": "COc1cc(NC(=O)c2ccc(C)c(C#Cc3cncc4ccccc34)c2)cc(OC)c1", "IC50": "> 1000 nM"}
{"compound structure": "Cc1ccc(C(=O)Nc2ccc(Cl)cc2)cc1C#Cc1cc(-c2cnn(C)c2)cnc1N", "IC50": "> 1000 nM"}

###

- assay text: Elimination half life in Sprague-Dawley rat at 5 mg/kg, po administered via gavage by LC-MS/MS analysis
- Format: ADME, organism-based
- test parameters: in vivo, read-out: beta t1/2 (converted)

{"compound structure": "Cc1ccc(C(=O)Nc2ccc(Cl)cc2)cc1C#Cc1cc(-c2cnn(C)c2)cnc1N", "unit name": "h", "half-life": 2.21}

###

- assay text: Tmax in Sprague-Dawley rat at 5 mg/kg, po administered via gavage by LC-MS/MS analysis
- Assay type: ADME, organism-based
- test parameters: in vivo

{"compound structure": "Cc1ccc(C(=O)Nc2ccc(Cl)cc2)cc1C#Cc1cc(-c2cnn(C)c2)cnc1N", "Tmax, h": 4}

###

- assay text: Cmax in Sprague-Dawley rat at 5 mg/kg, po administered via gavage by LC-MS/MS analysis
- Type: ADME, organism-based
- Parameters: dose 5 mg/kg, route oral
- test parameters: in vivo
outcome measure: Cmax (ng/mL)

{"compound structure": "Cc1ccc(C(=O)Nc2ccc(Cl)cc2)cc1C#Cc1cc(-c2cnn(C)c2)cnc1N", "outcome measure": "Cmax", "reported": 166}

###

- assay text: Elimination half life in Sprague-Dawley rat at 2 mg/kg, iv administered […] by LC-MS/MS analysis
- Format: ADME, organism-based
- test parameters: in vivo, read-out: beta t1/2 (converted)

{"compound structure": "Cc1ccc(C(=O)Nc2ccc(Cl)cc2)cc1C#Cc1cc(-c2cnn(C)c2)cnc1N", "unit name": "h", "half-life": 3.33}

###

- test system: UniProt:P07333
- assay text: Inhibition of recombinant CSF1R (unknown origin) using poly (Glu, Tyr)4:1 as substrate measured after 1 hr by ELISA
pIC50: −log10 of the molar value.
Param threshold (8) applies to pIC50; output T when value >= threshold, F when value < threshold.

{"compound structure": "Cc1ccc(C(=O)Nc2cccc(Cl)c2)cc1C#Cc1cc(-c2cnn(C)c2)cnc1N", "class name": "T"}
{"compound structure": "COC(=O)c1cnc(N)c(C#Cc2cc(C(=O)Nc3cc(OC)cc(OC)c3)ccc2C)c1", "class name": "T"}
{"compound structure": "Cc1ccc(C(=O)Nc2ccc(Cl)cc2)cc1C#Cc1cc(-c2cnn(C)c2)cnc1N", "class name": "T"}
{"compound structure": "COc1cc(NC(=O)c2ccc(F)c(C#Cc3cc(-c4cnn(C)c4)cnc3N)c2)cc(OC)c1", "class name": "F"}
{"compound structure": "COc1ccc(NC(=O)c2ccc(C)c(C#Cc3cc(-c4cnn(C)c4)cnc3N)c2)cc1", "class name": "T"}
{"compound structure": "Cc1ccc(C(=O)Nc2ccccc2Cl)cc1C#Cc1cc(-c2cnn(C)c2)cnc1N", "class name": "F"}
{"compound structure": "COc1cccc(NC(=O)c2ccc(C)c(C#Cc3cc(-c4cnn(C)c4)cnc3N)c2)c1", "class name": "T"}
{"compound structure": "Cc1ccc(CNc2ccc(Cl)cc2)cc1C#Cc1cc(-c2cnn(C)c2)cnc1N", "class name": "F"}

###

- assay text: Volume of distribution at steady state in Sprague-Dawley rat at 2 mg/kg, iv administered […] by LC-MS/MS analysis
- Format: ADME, organism-based
- test parameters: in vivo, read-out: Vdss

{"compound structure": "Cc1ccc(C(=O)Nc2ccc(Cl)cc2)cc1C#Cc1cc(-c2cnn(C)c2)cnc1N", "Vd": "6.34 L/kg"}

###

- assay text: Clearance in Sprague-Dawley rat at 2 mg/kg, iv administered […] by LC-MS/MS analysis
- Format: ADME, organism-based
- test parameters: in vivo

{"compound structure": "Cc1ccc(C(=O)Nc2ccc(Cl)cc2)cc1C#Cc1cc(-c2cnn(C)c2)cnc1N", "clearance [mL/min/kg]": 46}

Source of measurements: ChEMBL document CHEMBL4321879
